Some compounds, each annotated with its measured pIC50.
# target-system: GRK6, recombinant full-length GST-tagged human protein (Homo sapiens, UniProt P43250)
# Construct: Enzyme: 20 nM GRK6, recombinant full-length GST-tagged human protein; GST
# Sequence (P43250 whole entry): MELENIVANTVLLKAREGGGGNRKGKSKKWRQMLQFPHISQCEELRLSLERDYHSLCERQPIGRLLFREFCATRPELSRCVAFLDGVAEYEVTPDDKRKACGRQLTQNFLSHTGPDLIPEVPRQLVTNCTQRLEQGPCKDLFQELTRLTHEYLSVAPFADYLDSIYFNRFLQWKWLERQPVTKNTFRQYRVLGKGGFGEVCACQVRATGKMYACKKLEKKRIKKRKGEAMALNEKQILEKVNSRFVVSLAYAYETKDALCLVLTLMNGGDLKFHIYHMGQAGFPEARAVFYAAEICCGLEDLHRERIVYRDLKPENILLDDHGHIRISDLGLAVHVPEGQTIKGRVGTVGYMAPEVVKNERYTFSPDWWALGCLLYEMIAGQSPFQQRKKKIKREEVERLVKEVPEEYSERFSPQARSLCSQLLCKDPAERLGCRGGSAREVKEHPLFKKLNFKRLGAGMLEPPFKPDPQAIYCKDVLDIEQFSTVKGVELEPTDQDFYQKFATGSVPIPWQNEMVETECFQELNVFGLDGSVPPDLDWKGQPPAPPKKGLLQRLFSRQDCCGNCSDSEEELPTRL
# experimental-protocol: GRK6 assay, IC50 determination (8-point concentration-response)
# Assay type: biochemical
# experimental-parameters: Series 4 (Table 14); conditions as Example 18
pIC50: −log10 of the molar value.
measurement-type: pIC50

>>> print(df.to_string())
                              smiles_record  censor_symbol  quantitative_result
0     Cn1c(-c2nnc(SCC(=O)O)[nH]2)cc2ccccc21              =                 4.41
1          Cc1c(-c2nnc(SCC(=O)O)[nH]2)cnn1C              =                 4.02
2  COc1ccc2c(-c3nnc(SCC(=O)O)[nH]3)c[nH]c2c1              =                 4.68
3          O=C(O)CSc1nnc(-c2ccc(F)cn2)[nH]1              =                 4.10
4      CSc1nc(-c2nnc(SCC(=O)O)[nH]2)ccc1C#N              =                 4.51
5     O=C(O)CSc1nnc(-c2c[nH]c3ccccc23)[nH]1              <                 4.00
6         O=C(O)CSc1nnc(-c2ccc(Cl)cn2)[nH]1              =                 4.45
7   O=C(O)CSc1nnc(-c2ccc(C(F)(F)F)nc2)[nH]1              <                 4.27
8  O=C(O)CSc1nnc(-c2c[nH]nc2-c2ccccc2)[nH]1              =                 5.20
